# Tested on: Glycogen synthase kinase-3 (Homo sapiens, UniProt P49840+P49841)
# Protocol description: Inhibitory concentration against GSK3-beta by using [gamma-33P]-ATP as radioligand expressed in Escherichia coli in pH 7.2 for 19 min at room temperature
Observable: IC50 (nM)

See these solved cases before continuing.
- Smiles record: "N#Cc1cccc(NC(=O)Nc2ncnc3nn4ccccc4c23)c1"
  IC50 / nM: 126
- Smiles record: "O=C(Nc1cccc(C(F)(F)F)c1)Nc1ncnc2nn3ccccc3c12"
  IC50 / nM: 158
- Smiles record: "O=C(Nc1cccc([N+](=O)[O-])c1)Nc1ncnc2nn3ccccc3c12"
  IC50 / nM: 316

[I] O=C(Nc1ccc(Br)cc1)Nc1ncnc2nn3ccccc3c12
[II] O=C(Nc1ccc(C(F)(F)F)cc1)Nc1ncnc2nn3ccccc3c12
Higher IC50 between I and II ? API: response body contains the label of the selected item.
II
